# maps each entry to its self-cleavage
B1: CPEB3 Ribozyme (parent)
chain: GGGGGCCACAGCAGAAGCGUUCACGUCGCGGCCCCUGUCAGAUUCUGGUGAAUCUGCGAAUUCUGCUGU

Variants of: B1
Test: self-cleavage, relative activity (ratio to wild type); higher = more cleavage; co-transcriptional
# answer = number (no unit)

GGGGGCCACAGCAGAAGCGUUCACGUCGCGGCGCCGGUCAGAUUCUGGUGAAUCUGCGAAUUCUGCUGU [C33G U36G]    0.25
GGGGGCCACAGCACAAGCGUUCACGUCGUGGCCCCUGUCAGAUUCUGGUGAAUCUGCGAAUUCUGCUGU [G14C C29U]    0.163

Quote self-cleavage reported for GGGGGGCACAGCAGAAGCGUUCACGUCGCGGCACCUGUCAGAUUCUGGUGAAUCUGCGAAUUCUGCUGU [C6G C33A] please.
0.117

Give self-cleavage for GGGGGCCACAGCAGAAGCGUUCACUUCGCGGCCCCUGUCAGAUUCUGGUCAAUCUGCGAAUUCUGCUGU [G25U G50C]
0.189

Give the value of self-cleavage reported for the following: GGGGGCCACACCAGAAGCGUUCACGUCGCGGCCCCUCUCAGAUUCUGGUGAAUCUGCGAAUUCUGCUGU [G11C G37C]
0.103

Tell us which self-cleavage value is on record for GGGGGCCACAGCAGAAUCGUUCACGUCGCGGCCCCUGUCAGAUUCUGGUGAAUCUGCGAAUACUGCUGU [G17U U62A]
0.281

For the variant GGGGGGCACAGCAGAAGCGUUCACGUCGCGGUCCCUGUCAGAUUCUGGUGAAUCUGCGAAUUCUGCUGU [C6G C32U] , give its measured self-cleavage value.
0.212

For the variant GGGGGGCACAGCAGAAGCGUUCACGUCGCAGCCCCUGUCAGAUUCUGGUGAAUCUGCGAAUUCUGCUGU [C6G G30A] , give its measured self-cleavage value.
0.172

Report self-cleavage for GGGGGCCACAGCAGAAGCGUACACGUCGCGGCCCCGGUCAGAUUCUGGUGAAUCUGCGAAUUCUGCUGU [U21A U36G]
0.272

Respond only with self-cleavage recorded for GGGGGCCACAGUAGAAGCGUUCACGUCGCGGCCCCUGUCAGAUUCUGGUGAAGCUGCGAAUUCUGCUGU [C12U U53G]
0.771

Determine from records and report self-cleavage for GGGUGCCACAGCAGAAGCGUUCACGUCGCGGCCCCUGUCAGAGUCUGGUGAAUCUGCGAAUUCUGCUGU [G4U U43G]
0.389
